test: activity coefficient (dimensionless); of the first substance listed, at infinite dilution; xn = mol fraction of the nth substance listed; settings: 368.15 K; 101.33 kPa; Liquid; Chromatography; x1 = 0
Please provide measured activity coefficient for the entries that follow.

Known activity coefficient results, listed for orientation:
> print(dat)
                                   molecule    attribute.measured  value
1  C#CCCCCCC [1-octyne] + CCCCCCCCCCCCn1cc[n+](C)c1.O=S(=O)([N-]S(=O)(=O)C(F)(F)F)C(F)(F)F  activity coefficient   2.06
2  CCCCCCCC [octane] + CCCCCCCCCCCCn1cc[n+](C)c1.O=S(=O)([N-]S(=O)(=O)C(F)(F)F)C(F)(F)F  activity coefficient   4.42

INPUT: Item C1CCCC1 [cyclopentane] + CCCCCCCCCCCCn1cc[n+](C)c1.O=S(=O)([N-]S(=O)(=O)C(F)(F)F)C(F)(F)F has what recorded activity coefficient?
OUTPUT: 1.86

All values here come from the NIST ThermoML archive (doi:10.1016/j.jct.2016.08.008).
